- Test system: MCF7 breast, mitox (mitoxantrone-resistant)
- assay_name: Cytotoxicity in tumor cell culture, SRB assay
- Type: cell-based, human
- test_settings: mitoxantrone-resistant; read-out: IC50 against human mouse tumors, MCF7 breast mitox
- Excerpt: Relative potencies of the N-substituted 2-cyanoaziridine-1-carboxamides in a panel of tumor cell cultures are compared in Table 3. […]
test_readout: IC50 (µM)
Express the result in µM but write the number alone.

Solved cases (6 shown):
N#CC1CN1C(=O)NCc1ccccc1 (stereo not shown); 3.4
N#CC1CN1C(=O)Nc1ccc(F)cc1 (stereo not shown); 2.7
N#CC1CN1C(=O)Nc1ccc(C(F)(F)F)cc1 (stereo not shown); 1.3
CCOC(=O)c1ccc(NC(=O)N2CC2C#N)cc1 (stereo not shown); 3.3
CCOC(=O)CNC(=O)N1CC1C#N (stereo not shown); 11
CC(C)(C)NC(=O)N1CC1C#N (stereo not shown); 120

Proceed to the following item.
query: // lookup IC50 for N#CC1CN1C(=O)Nc1ccc(Cl)c(Cl)c1 (stereo not shown)
result: 4.4

----------
Each entry below carries its reported pIC50.
- Test system: L1210 leukemia, Sens
- assay_name: Cytotoxicity in tumor cell culture, MTT assay
- Type: cell-based, murine
- test_settings: MTT assay; read-out: IC50 against human mouse tumors, L1210 leukemia Sens
// pIC50 here means minus log10 of the molar concentration (mol/L)

CCCCNC(=O)N1CC1C#N (centres unmarked) [Compound 8, 2-Cyanoaziridine-1-(N-butyl) carboxamide]; 4.92

query: // lookup pIC50 for N#CC1CN1C(=O)Nc1cccnc1 (centres unmarked)
result: 4.96

query: What about this compound? CC(=O)Oc1ccccc1NC(=O)N1CC1C#N (centres unmarked)
result: 5.02

query: What about this compound? N#CC1CN1C(=O)NC1CCCCC1 (centres unmarked)
result: 5.13

----------
- Tested on: L1210 leukemia, Sens
- assay_name: Cytotoxicity in tumor cell culture, MTT assay
- Assay type: cell-based, murine
- test_settings: Mus musculus, L1210, read-out: IC50 against human mouse tumors, L1210 leukemia Sens
test_readout: IC50

query: // lookup IC50 for N#CC1CN1C(N)=O (stereo not shown) [Compound 1, 2-cyanoaziridine-1-carboxamide]
result: > 90 µM

----------
Each entry below carries its reported pIC50.
- System: L1210 leukemia, Sens
- assay_name: Cytotoxicity in tumor cell culture, MTT assay
- Type: cell-based, murine
- test_settings: MTT assay; read-out: IC50 against human mouse tumors, L1210 leukemia Sens
// pIC50 here means minus log10 of the molar concentration (mol/L)

Solved cases (3 shown):
N#CC1CN1C(=O)Nc1ccc(F)cc1 (stereo not drawn); 5.14
CC(C)(C)NC(=O)N1CC1C#N (stereo not drawn); 3.88
N#CC1CN1C(=O)Nc1ccc(Cl)cc1Cl (stereo not drawn); 3.68

query: // lookup pIC50 for CCOC(=O)c1ccc(NC(=O)N2CC2C#N)cc1 (stereo not drawn)
result: 5.01

query: What about this molecule? N#CC1CN1C(=O)Nc1ccc([N+](=O)[O-])cc1 (stereo not drawn)
result: 5.59

query: What about this molecule? CCOC(=O)CNC(=O)N1CC1C#N (stereo not drawn)
result: 4.89

----------
- Tested on: 8226 myeloma, Res (imexon-resistant)
- assay_name: Cytotoxicity in tumor cell culture, SRB assay
- Type: cell-based
- test_settings: line made resistant to imexon; read-out: IC50 against human mouse tumors, 8226 myeloma Res
Each entry below carries its reported pIC50.
// pIC50 here means minus log10 of the molar concentration (mol/L)

Solved cases (6 shown):
N#CC1CN1C(=O)Nc1cccc2ccccc12 (centres unmarked) [Compound 23]; 5.05
N#CC1CN1C(=O)Nc1ccc([N+](=O)[O-])cc1 (centres unmarked) [Compound 16]; 5.07
N#CC1CN1C(=O)NCc1ccccc1 (centres unmarked) [Compound 11]; 4.96
N#CC1CN1C(=O)NC1CCCCC1 (centres unmarked) [Compound 10]; 4.01
N#CC1CN1C(=O)Nc1ccc(F)cc1 (centres unmarked) [Compound 14]; 5.23
CC(=O)Oc1ccccc1NC(=O)N1CC1C#N (centres unmarked) [Compound 21]; 5.02

query: // lookup pIC50 for CCOC(=O)CNC(=O)N1CC1C#N (centres unmarked) [Compound 12]
result: 4.52
